Record form. Attribute: clearance. Fill in for each entry.
assay: Pharmacokinetics parameters in rats; type: in vivo; details: rat, plasma, iv, after i.v. administration
One number for each entry, in mL/min/kg.

List reported clearance for each of these compounds:
1. COc1ccc(-c2cc(I)ncn2)c(F)c1 [ACT-MIF-002]
2. Fc1ccccc1-c1cc(I)ncn1 [ACT-MIF-003, 4-Iodo-6-(2-fluorophenyl)pyrimidine]
3. COc1ccc(-c2cc(I)ncn2)c(F)c1F [ACT-MIF-001]

Result ::
1: 132; 2: 197; 3: 763

* * *

Target: MIF (Homo sapiens)
Construct: the enzymatic activity of MIF present in cell lysates; endogenous in cells
Sequence (P14174 2-115 limits assumed): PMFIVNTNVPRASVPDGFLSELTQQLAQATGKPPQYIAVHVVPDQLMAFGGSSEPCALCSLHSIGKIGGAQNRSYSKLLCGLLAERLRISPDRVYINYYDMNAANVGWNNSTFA
Test: MIF cell lysate enzymatic inhibition
Settings: cell lysates
Protocol: Normal or transformed cell lysates can be used to determine the concentration inhibiting the enzymatic activity of MIF present in cell lysates. Cells are cultured in the appropriate media to the required number of cells, collected, and lysed. Compounds to be characterized are solubilized in DMSO and serial dilutions are performed in order to obtain a range of concentrations including complete and no quantifiable inhibition.
Rule for this label: class 1 means IC50 is less than 200 nM; class 0 means IC50 is at least 200 nM.

A selection of reference data follows.
Ic1cc(-c2cccnc2)ncn1	class 0
NC(=O)c1cccc(-c2cc(I)ncn2)c1	class 1
COc1ccc(-c2cc(I)ncn2)c(F)c1	class 1
Ic1cc(-c2ccccc2)ncn1 [4-IPP, 4-iodo-6-phenylpyrimidine, reference compound]	class 0
CCOc1ccc(-c2cc(I)ncn2)cc1F	class 1
Ic1cc(-c2ccnc3ccccc23)ncn1	class 0

Query :: Does the reported IC50 of "NC(=O)c1ccc(-c2cc(I)ncn2)cc1" stay below 200 nM?
Result :: class 0

Query :: Does the reported IC50 of "COc1ccc(-c2cc(I)ncn2)c(F)c1F" stay below 200 nM?
Result :: class 1

Query :: Does the reported IC50 of "Fc1ccc(-c2cc(I)ncn2)c(F)c1" stay below 200 nM?
Result :: class 1

Query :: Does the reported IC50 of "CC(=O)Nc1cccc(-c2cc(I)ncn2)c1" stay below 200 nM?
Result :: class 0

* * *

Record form. Attribute: pIC50. Fill in for each entry.
System: Du 145
Test: Inhibition of tumor cells proliferation (CellTiter Glo)
Format: cell-based
Conditions: Homo sapiens, 72 hours
Description: Inhibition of the proliferation of tumor cells was investigated in vitro in several tumor cell lines. Cells of the desired tumor cell line were plated at 2×10^5 cells/ml in 96 well plates. Twice the indicated concentrations of the compounds of the invention were added to cells the following day in an equal volume of media. 72 hours later, cells were lysed and subjected to ATP determination using the CellTiter Glo-Luminescent Cell Viability Assay kit (Promega, Madison, Wis.). […]
pIC50: −log10 of the molar value.

// known answers, use as guide
NC(=O)c1ccc(-c2cc(I)ncn2)cc1 [ACT-MIF-034]	> 4.00
Fc1ccc(-c2cc(I)ncn2)c(F)c1 [ACT-MIF-017, 4-Iodo-6-(2,4-difluorophenyl)pyrimidine]	> 5.00
Ic1cc(-c2ccsc2)ncn1 [ACT-MIF-022, 4-Iodo-6-(thiophen-3-yl)pyrimidine]	> 4.40
COc1ccc(-c2cc(I)ncn2)c(F)c1F [ACT-MIF-001]	> 5.00

Continue with the compound presented below.
For CCOc1ccc(-c2cc(I)ncn2)cc1F [ACT-MIF-033] the compound record lists pIC50 as > 5.30
